- protocol_notes: total protein half-life in vivo (active degradation + dilution); higher = more stable protein
- condition_notes: E. coli NCM3722 delta-clpP; growth: N-lim chemostat; doubling time 6 h
measurement_kind: total protein half-life in vivo (h)
# value in h; strip the unit string

Reference set (3 entries):
Reported total protein half-life in vivo for "MKYQLTALEARVIGCLLEKQVTTPEQYPLSVNGVVTACNQKTNREPVMNLSESEVQEQLDNLVKRHYLRTVSGFGNRVTKYEQRFCNSEFGDLKLSAAEVALITTLLLRGAQTPGELRSRAARMYEFSDMAEVESTLEQLANREDGPFVVRLAREPGKRENRYMHLFSGEVEDQPAVTDMSNAVDGDLQARVEALEIEVAELKQRLDSLLAHLGD" : what is it?
5.48

Reported total protein half-life in vivo for MKIGIIGAMEEEVTLLRDKIENRQTISLGGCEIYTGQLNGTEVALLKSGIGKVAAALGATLLLEHCKPDVIINTGSAGGLAPTLKVGDIVVSDEARYHDADVTAFGYEYGQLPGCPAGFKADDKLIAAAEACIAELNLNAVRGLIVSGDAFINGSVGLAKIRHNFPQAIAVEMEATAIAHVCHNFNVPFVVVRAISDVADQQSHLSFDEFLAVAAKQSSLMVESLVQKLAHG [P0AF12] : what is it?
4.39

Reported total protein half-life in vivo for "MDLASLRAQQIELASSVIREDRLDKDPPDLIAGADVGFEQGGEVTRAAMVLLKYPSLELVEYKVARIATTMPYIPGFLSFREYPALLAAWEMLSQKPDLVFVDGHGISHPRRLGVASHFGLLVDVPTIGVAKKRLCGKFEPLSSEPGALAPLMDKGEQLAWVWRSKARCNPLFIATGHRVSVDSALAWVQRCMKGYRLPEPTRWADAVASERPAFVRYTANQP" : what is it?
5.52

# input for lookup
Reported total protein half-life in vivo for MLIFEGKEIETDTEGYLKESSQWSEPLAVVIAENEGISLSPEHWEVVRFVRDFYLEFNTSPAIRMLVKAMANKFGEEKGNSRYLYRLFPKGPAKQATKIAGLPKPVKCI [P0AB18] : what is it?
3.82

---

- protocol_notes: total protein half-life in vivo (active degradation + dilution); higher = more stable protein
- condition_notes: wild type E. coli NCM3722; growth: N-lim chemostat; doubling time 12 h
measurement_kind: total protein half-life in vivo (h)
# value in h; strip the unit string

Reported total protein half-life in vivo for "MAHIVTLNTPSREDWLTQLADVVTDPDELLRLLNIDAEEKLLAGRSAKKLFALRVPRSFIDRMEKGNPDDPLLRQVLTSQDEFVIAPGFSTDPLEEQHSVVPGLLHKYHNRALLLVKGGCAVNCRYCFRRHFPYAENQGNKRNWQTALEYVAAHPELDEMIFSGGDPLMAKDHELDWLLTQLEAIPHIKRLRIHSRLPIVIPARITEALVECFARSTLQILLVNHINHANEVDETFRQAMAKLRRVGVTLLNQSVLLRDVNDNAQTLANLSNALFDAGVMPYYLHVLDKVQGAAHFMVSDDEARQIMRELLTLVSGYLVPKLAREIGGEPSKTPLDLQLRQQ" : what is it?
2.05

---

- protocol_notes: total protein half-life in vivo (active degradation + dilution); higher = more stable protein
- condition_notes: wild type E. coli NCM3722; growth: N-lim chemostat; doubling time 6 h
measurement_kind: total protein half-life in vivo (h)
# value in h; strip the unit string

Reference set (2 entries):
Reported total protein half-life in vivo for "MGKSIVVVSAVNFTTGGPFTILKKFLAATNNKENVSFIALVHSAKELKESYPWVKFIEFPEVKGSWLKRLHFEYVVCKKLSKELNATHWICLHDITANVVTKKRYVYCHNPAPFYKGILFREILMEPSFFLFKMLYGLIYKINIKKNTAVFVQQFWMKEKFIKKYSINNIIVSRPEIKLSDKSQLTDDDSQFKNNPSELTIFYPAVPRVFKNYELIISAARKLKEQSNIKFLLTISGTENAYAKYIISLAEGLDNVHFLGYLDKEKIDHCYNISDIVCFPSRLETWGLPLSEAKERGKWVLASDFPFTRETLGSYEKKAFFDSNNDDMLVKLIIDFKKGNLKKDISDANFIYRNENVLVGFDELVNFITEEH" : what is it?
5.39

Reported total protein half-life in vivo for MMANIWWSLPLTLIVFFAARKLAARYKFPLLNPLLVAMVVIIPFLMLTGISYDSYFKGSEVLNDLLQPAVVALAYPLYEQLHQIRARWKSIITICFIGSVVAMVTGTSVALLMGASPEIAASILPKSVTTPIAMAVGGSIGGIPAISAVCVIFVGILGAVFGHTLLNAMRIRTKAARGLAMGTASHALGTARCAELDYQEGAFSSLALVLCGIITSLIAPFLFPIILAVMG [P0AD19] : what is it?
5.99

Further cases:
Reported total protein half-life in vivo for "MTQYSSLLRGLAAGSAFLFLFAPTAFAAEQTVEAPSVDARAWILMDYASGKVLAEGNADEKLDPASLTKIMTSYVVGQALKADKIKLTDMVTVGKDAWATGNPALRGSSVMFLKPGDQVSVADLNKGVIIQSGNDACIALADYVAGSQESFIGLMNGYAKKLGLTNTTFQTVHGLDAPGQFSTARDMALLGKALIHDVPEEYAIHKEKEFTFNKIRQPNRNRLLWSSNLNVDGMKTGTTAGAGYNLVASATQGDMRLISVVLGAKTDRIRFNESEKLLTWGFRFFETVTPIKPDATFVTQRVWFGDKSEVNLGAGEAGSVTIPRGQLKNLKASYTLTEPQLTAPLKKGQVVGTIDFQLNGKSIEQRPLIVMENVEEGGFFGRVWDFVMMKFHQWFGSWFS" : what is it?
5.99

Reported total protein half-life in vivo for MPWIQLKLNTTGANAEDLSDALMEAGAVSITFQDTHDTPVFEPLPGETRLWGDTDVIGLFDAETDMNDVVAILENHPLLGAGFAHKIEQLEDKDWEREWMDNFHPMRFGERLWICPSWRDVPDENAVNVMLDPGLAFGTGTHPTTSLCLQWLDSLDLTGKTVIDFGCGSGILAIAALKLGAAKAIGIDIDPQAIQASRDNAERNGVSDRLELYLPKDQPEEMKADVVVANILAGPLRELAPLISVLPVSGGLLGLSGILASQAESVCEAYADSFALDPVVEKEEWCRITGRKN [P0A8T1] : what is it?
4.39

Reported total protein half-life in vivo for "MFSALRHRTAALALGVCFILPVHASSPKPGDFANTQARHIATFFPGRMTGTPAEMLSADYIRQQFQQMGYRSDIRTFNSRYIYTARDNRKSWHNVTGSTVIAAHEGKAPQQIIIMAHLDTYAPLSDADADANLGGLTLQGMDDNAAGLGVMLELAERLKNTPTEYGIRFVATSGEEEGKLGAENLLKRMSDTEKKNTLLVINLDNLIVGDKLYFNSGVKTPEAVRKLTRDRALAIARSHGIAATTNPGLNKNYPKGTGCCNDAEIFDKAGIAVLSVEATNWNLGNKDGYQQRAKTPAFPAGNSWHDVRLDNHQHIDKALPGRIERRCRDVMRIMLPLVKELAKAS" : what is it?
5.37

---

# reported total protein half-life in vivo; entries follow
- protocol_notes: total protein half-life in vivo (active degradation + dilution); higher = more stable protein
- condition_notes: E. coli NCM3722 delta-clpP delta-lon delta-hslV; growth: N-lim chemostat; doubling time 6 h
# value in h; strip the unit string

Reported total protein half-life in vivo for "MNEFSILCRVLGSLYYRQPQDPLLVPLFTLIREGKLAANWPLEQDELLTRLQKSCDMTQVSADYNALFIGDECAVPPYRSAWVEGATEAEVRAFLSERGMPLADTPADHIGTLLLAASWLEDQSTEDESEALETLFSEYLLPWCGAFLGKVEAHATTPFWRTMAPLTRDAISAMWDELEEDSEE" : what is it?
5.33

Further cases:
Reported total protein half-life in vivo for "MPLLDSFTVDHTRMEAPAVRVAKTMNTPHGDAITVFDLRFCVPNKEVMPERGIHTLEHLFAGFMRNHLNGNGVEIIDISPMGCRTGFYMSLIGTPDEQRVADAWKAAMEDVLKVQDQNQIPELNVYQCGTYQMHSLQEAQDIARSILERDVRINSNEELALPKEKLQELHI" : what is it?
5.42

Reported total protein half-life in vivo for "MSDQQQPPVYKIALGIEYDGSKYYGWQRQNEVRSVQEKLEKALSQVANEPITVFCAGRTDAGVHGTGQVVHFETTALRKDAAWTLGVNANLPGDIAVRWVKTVPDDFHARFSATARRYRYIIYNHRLRPAVLSKGVTHFYEPLDAERMHRAAQCLLGENDFTSFRAVQCQSRTPWRNVMHINVTRHGPYVVVDIKANAFVHHMVRNIVGSLMEVGAHNQPESWIAELLAAKDRTLAAATAKAEGLYLVAVDYPDRYDLPKPPMGPLFLAD" : what is it?
5.48

Data origin, for the record: the supplement of paper PMC11246515
